- System: panel of 140 standard cancer cell lines
- EXPERIMENT_SUMMARY: ProliFiler-140 cancer cell line screen (CellTiterGlo, 72 h)
- Assay type: cell-based
- CONDITION_DETAILS: read-out: IC50 [M] (ProliFiler-140); EFM-19 (Breast)
- Experimental: Incubations were performed for 72 h before automated viability readout with CellTiterGlo (Figure 8). End of Figure S11 (part 5 of 5): ProliFiler-140 cancer cell line screening for cytotoxicity of the prodrugs. 8-data-point dose response curves from CellTiter-Glo® viability readout. ProliFiler-140 cell line panel part V
VALUE_KIND: IC50 (M)
Give bare numbers, in M.

Query block: Check panel of 140 standard cancer cell lines data and give IC50 for COc1cc2cc(C(=O)N3C[C@@H](CCl)c4c3cc(OC(=O)N3CCN(C(=O)CCC(=O)N5CCN(C)CC5)[C@H]5CSSC[C@H]53)c3ccccc43)[nH]c2c(OC)c1OC [P-SS66C-CBI-TMI] .
Result block: 3.12e-07
